The measurements presented in this section are drawn from ChEMBL document CHEMBL3217743.

- PROTOCOL_SUMMARY: in vivo
- CONDITION: rat
Reported bioavailability values for a set of compounds
RECORDED_ENDPOINT: bioavailability (%)

1. CCCSc1nc(N2CCC[C@@H](Cc3nnn[nH]3)C2)ccc1C(=O)NC1CCCCC1; 21
2. O=C(N[C@H]1C2CC3CC1C[C@](OC(F)F)(C3)C2)c1ccc(N2C[C@@H]3[C@H](C2)[C@H]3C(=O)O)nc1SC1CCCC1; 94
3. O=C(O)[C@H]1[C@@H]2CN(c3ccc(C(=O)N4CCC(c5cccnc5)C4)c(SC4CCCC4)n3)C[C@@H]21 (stereo partly drawn); 3

* * *

- PROTOCOL_SUMMARY: Plasma clearance in mouse at 1 to 3 mg/kg
- Format: ADME, organism-based
- Parameters: dose 1-3 mg/kg
RECORDED_ENDPOINT: clearance

1) CSc1nc(N2C[C@@H]3[C@H](C2)[C@H]3C(=O)O)ccc1C(=O)NC12CC3CC(CC(C3)C1)C2; 9 mL/min/kg

* * *

- PROTOCOL_SUMMARY: Half life in rat at 1 to 3 mg/kg, iv
- Format: ADME, organism-based
- Set-up: dose 1-3 mg/kg, route intravenous
- CONDITION: in vivo
RECORDED_ENDPOINT: half-life (h)

1. CSc1nc(N2C[C@@H]3[C@H](C2)[C@H]3C(=O)O)ccc1C(=O)NC12CC3CC(CC(C3)C1)C2; 4.3

* * *

- PROTOCOL_SUMMARY: Drug excretion in bile duct cannulated rat urine assessed as compound remaining by HPLC analysis
- Assay type: ADME, tissue-based
- CONDITION: read-out: Stability
RECORDED_ENDPOINT: dose excreted

1) CSc1nc(N2C[C@@H]3[C@H](C2)[C@H]3C(=O)O)ccc1C(=O)NC12CC3CC(CC(C3)C1)C2; 7.6%
2) CCCSc1nc(N2CCC[C@@H](CC(=O)O)C2)ccc1C(=O)NC1CCCCC1; 4%

* * *

- TARGET: CYP2D6 (Homo sapiens, UniProt P10635)
- Sequence (P10635 whole entry): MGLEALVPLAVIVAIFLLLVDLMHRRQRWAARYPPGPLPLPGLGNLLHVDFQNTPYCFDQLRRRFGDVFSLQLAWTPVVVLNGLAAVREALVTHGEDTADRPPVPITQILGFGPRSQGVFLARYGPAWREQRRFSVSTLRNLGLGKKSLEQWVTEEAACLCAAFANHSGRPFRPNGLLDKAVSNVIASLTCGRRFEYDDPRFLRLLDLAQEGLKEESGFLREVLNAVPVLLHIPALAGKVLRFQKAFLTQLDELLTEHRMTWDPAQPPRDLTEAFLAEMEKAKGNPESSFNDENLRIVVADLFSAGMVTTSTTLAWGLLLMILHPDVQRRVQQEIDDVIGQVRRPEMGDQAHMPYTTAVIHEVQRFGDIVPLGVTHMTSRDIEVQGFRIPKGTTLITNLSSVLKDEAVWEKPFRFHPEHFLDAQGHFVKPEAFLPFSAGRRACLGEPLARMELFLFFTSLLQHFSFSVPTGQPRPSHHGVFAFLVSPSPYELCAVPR
- PROTOCOL_SUMMARY: Inhibition of CYP2D6 (unknown origin) at 10 uM relative to control
- Assay type: ADME
RECORDED_ENDPOINT: inhibition at 10 µM

1. CSc1nc(N2C[C@@H]3[C@H](C2)[C@H]3C(=O)O)ccc1C(=O)NC12CC3CC(CC(C3)C1)C2; < 25%

* * *

- TARGET: Sigma non-opioid intracellular receptor 1 (Homo sapiens)
- Sequence (Q99720 whole entry): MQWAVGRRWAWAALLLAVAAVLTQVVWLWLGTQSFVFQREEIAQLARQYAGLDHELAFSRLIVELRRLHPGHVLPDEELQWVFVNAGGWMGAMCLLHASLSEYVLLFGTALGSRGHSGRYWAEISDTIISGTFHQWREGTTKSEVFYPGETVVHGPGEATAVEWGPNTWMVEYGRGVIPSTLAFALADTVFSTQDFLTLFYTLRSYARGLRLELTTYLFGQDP
- PROTOCOL_SUMMARY: Inhibition of sigma-1 receptor (unknown origin)
RECORDED_ENDPOINT: IC50 (µM)

1. CSc1nc(N2C[C@@H]3[C@H](C2)[C@H]3C(=O)O)ccc1C(=O)NC12CC3CC(CC(C3)C1)C2; 30

* * *

- PROTOCOL_SUMMARY: Clearance in rat hepatocytes measured per 10^6 cells
- Assay type: ADME, cell-based, Hepatocyte
- CONDITION: read-out: CLH
Readings of hepatocyte CLint for the listed molecules
RECORDED_ENDPOINT: hepatocyte CLint (µL/min/1e6 cells)

1) CCCSc1nc(N2CCC[C@@H](CC(=O)NS(C)(=O)=O)C2)ccc1C(=O)NC1CCCCC1; 38
2) O=C(N[C@H]1C2CC3CC1C[C@](O)(C3)C2)c1ccc(N2C[C@@H]3[C@H](C2)[C@H]3C(=O)O)nc1SC1CCCC1; 4
3) O=C(N[C@H]1C2CC3CC1C[C@](OC(F)F)(C3)C2)c1ccc(N2C[C@@H]3[C@H](C2)[C@H]3C(=O)O)nc1SC1CCCC1; 7
4) CCCSc1nc(N2CCC[C@@H](Cc3nnn[nH]3)C2)ccc1C(=O)NC1CCCCC1; 9
5) CCCSc1nc(N2CCC(C(=O)O)C2)ccc1C(=O)NC1CCCCC1 (stereo not drawn); 3

* * *

- PROTOCOL_SUMMARY: Fraction unbound in human plasma by equilibrium dialysis technique
- Assay type: ADME, cell-free
RECORDED_ENDPOINT: fraction unbound

1. CSc1nc(N2C[C@@H]3[C@H](C2)[C@H]3C(=O)O)ccc1C(=O)NC12CC3CC(CC(C3)C1)C2; 0.011

* * *

- PROTOCOL_SUMMARY: Apparent permeability from basolateral to apical side in MDCK cells at 10 uM
- Assay type: ADME, cell-based, Canis lupus familiaris
- CONDITION: dog
RECORDED_ENDPOINT: Papp B→A at 10 µM (×10⁻⁶ cm/s)

1) CSc1nc(N2C[C@@H]3[C@H](C2)[C@H]3C(=O)O)ccc1C(=O)NC12CC3CC(CC(C3)C1)C2; 13

* * *

- PROTOCOL_SUMMARY: Fraction unbound in rat plasma by equilibrium dialysis technique
- Assay type: ADME, cell-free
RECORDED_ENDPOINT: fraction unbound

1) CCCSc1nc(N2CCCC(C3(C(=O)O)CC3)C2)ccc1C(=O)NC1CCCCC1 (stereo not drawn); 0.002
2) CCCSc1nc(N2CCC[C@@H](Cc3nnn[nH]3)C2)ccc1C(=O)NC1CCCCC1; 0.006
3) CSc1nc(N2C[C@@H]3[C@H](C2)[C@H]3C(=O)O)ccc1C(=O)NC12CC3CC(CC(C3)C1)C2; 0.017
4) O=C(O)[C@H]1[C@@H]2CN(c3ccc(C(=O)N4CCC(c5cccnc5)C4)c(SC4CCCC4)n3)C[C@@H]21 (stereo partly drawn); 0.034
5) CCCSc1nc(N2CCC(C(=O)O)C2)ccc1C(=O)NC1CCCCC1 (stereo not drawn); 0.012
6) CCCSc1nc(N2CCCC(C(C)(C)C(=O)O)C2)ccc1C(=O)NC1CCCCC1 (stereo not drawn); 0.004
7) CCCSc1nc(N2CCC[C@@H](CC(=O)O)C2)ccc1C(=O)NC1CCCCC1; 0.018
8) CCCSc1nc(N2CC[C@H](CC(=O)O)C2)ccc1C(=O)NC1CCCCC1; 0.01
9) CCCSc1nc(N2CCC[C@@H](CC(=O)NS(C)(=O)=O)C2)ccc1C(=O)NC1CCCCC1; 0.017
10) O=C(N[C@H]1C2CC3CC1C[C@](O)(C3)C2)c1ccc(N2C[C@@H]3[C@H](C2)[C@H]3C(=O)O)nc1SC1CCCC1; 0.04
11) CCCSc1nc(N2C[C@@H]3[C@H](C2)[C@H]3C(=O)O)ccc1C(=O)N[C@H]1C2CC3CC1C[C@](O)(C3)C2; 0.108
12) O=C(N[C@H]1C2CC3CC1C[C@](OC(F)F)(C3)C2)c1ccc(N2C[C@@H]3[C@H](C2)[C@H]3C(=O)O)nc1SC1CCCC1; 0.005
13) CCCSc1nc(N2C[C@@H]3[C@H](C2)[C@H]3C(=O)O)ccc1C(=O)NC1CCCCC1; 0.025

* * *

- PROTOCOL_SUMMARY: Apparent permeability from apical to basolateral side in MDCK cells at 10 uM
- Assay type: ADME, cell-based, Canis lupus familiaris
- CONDITION: dog
RECORDED_ENDPOINT: Papp A→B at 10 µM (×10⁻⁶ cm/s)

1. CSc1nc(N2C[C@@H]3[C@H](C2)[C@H]3C(=O)O)ccc1C(=O)NC12CC3CC(CC(C3)C1)C2; 21

* * *

- TARGET: UniProt P16232
- Sequence (P16232 whole entry): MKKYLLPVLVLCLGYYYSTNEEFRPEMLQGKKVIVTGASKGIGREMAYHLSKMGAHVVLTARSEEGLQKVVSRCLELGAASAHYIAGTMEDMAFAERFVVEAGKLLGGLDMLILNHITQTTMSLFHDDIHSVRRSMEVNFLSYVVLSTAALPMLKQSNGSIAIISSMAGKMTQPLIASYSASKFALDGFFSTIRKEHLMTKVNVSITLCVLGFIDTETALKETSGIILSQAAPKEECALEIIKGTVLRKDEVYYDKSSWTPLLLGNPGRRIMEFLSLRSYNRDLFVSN
pIC50: −log10 of the molar value.
RECORDED_ENDPOINT: pIC50

1) CSc1nc(N2C[C@@H]3[C@H](C2)[C@H]3C(=O)O)ccc1C(=O)NC12CC3CC(CC(C3)C1)C2; 7.09

* * *

- PROTOCOL_SUMMARY: Half life in dog at 1 to 3 mg/kg, po
- Type: ADME, organism-based, Canis lupus familiaris
- Parameters: dose 1-3 mg/kg, route oral
- CONDITION: in vivo
RECORDED_ENDPOINT: half-life

1. CSc1nc(N2C[C@@H]3[C@H](C2)[C@H]3C(=O)O)ccc1C(=O)NC12CC3CC(CC(C3)C1)C2; 27 h

* * *

Listing of entries alongside the reported hepatocyte CLint.
- PROTOCOL_SUMMARY: Clearance in rat hepatocytes measured per 10^6 cells
- Type: ADME, cell-based, Hepatocyte
- CONDITION: read-out: CLH
RECORDED_ENDPOINT: hepatocyte CLint

1. CCCSc1nc(N2C[C@@H]3[C@H](C2)[C@H]3C(=O)O)ccc1C(=O)NC1CCCCC1; < 2 µL/min/1e6 cells
2. CCCSc1nc(N2C[C@@H]3[C@H](C2)[C@H]3C(=O)O)ccc1C(=O)N[C@H]1C2CC3CC1C[C@](O)(C3)C2; < 2 µL/min/1e6 cells
3. CCCSc1nc(N2CCC[C@@H](CC(=O)O)C2)ccc1C(=O)NC1CCCCC1 [AZD-4017]; < 2 µL/min/1e6 cells
